Values from patent EP2910557A1

System: SK-HEP-1
protocol-notes: Cancer cell growth inhibition, 72 h treatment
Format: cell-based
test-parameters: Homo sapiens, SK-HEP1, Liver cancer SK-HEP-1, Alamar Blue
readout-kind: EC50 (nM)

(A) CC(C)C[C@H](NC(=O)[C@@H]1N[C@H](c2ccccc2)[C@@H]([N+](=O)[O-])[C@@H]1c1ccccc1)B(O)O [Example 1]
(B) CC(C)C[C@H](NC(=O)[C@H]1N[C@@H](c2ccccc2)[C@@H]([N+](=O)[O-])[C@@H]1c1ccccc1)B(O)O [Example 4]
EC50 comparison. Which is larger, A or B ? Mark your selection by writing its label.
A
(A: 490 nM, B: 290 nM)
